Data provenance: ChEMBL document CHEMBL3507680

Recorded cytotoxicity at 70.5 h by entry
- Test description: Human HepG2 cell viability assay in 384 well format
- Type: toxicity, cell-based
- Parameters: dose 125 nL, time 70.5 hour; concentration not given beside the values
- Test conditions: HepG2 cells, read-out: Inhibition
API: value field is a number in %; no unit string.

Some compounds with recorded cytotoxicity at 70.5 h:
[[record]]
compound = "CCC(C)NC(=O)Nc1cccc(OCC#N)c1 (configuration not stated)"
test_value = -12.4

[[record]]
compound = "Cn1ccc(CS(=O)(=O)Cc2cccc(F)c2)cc1=O"
test_value = -11

[[record]]
compound = "O=C(NCCC1CCCCO1)c1cc(COc2ccccc2F)[nH]n1 (configuration not stated)"
test_value = -4.49

[[record]]
compound = "COc1ccc(OCCc2cc(C3CNCCO3)nn2C)cc1 (configuration not stated)"
test_value = 12.2

[[record]]
compound = "CCc1ccc(CNC(=O)CCNS(=O)(=O)c2cn(C)c(C)n2)s1"
test_value = -7.93

[[record]]
compound = "CCCn1[nH]c(CNc2cccc(Cl)c2)nc1=O"
test_value = -15.4


// moving on: another record for cytotoxicity at 70.5 h
Qu. Quick one: cytotoxicity at 70.5 h of COCC1c2c(cnn2C)CCN1Cc1cccc(C)c1 (configuration not stated) ?
Ans. -1.18
